Notes on IC50 obtained with Malate dehydrogenase, mitochondrial (Homo sapiens).
Sequence (P40926 whole entry): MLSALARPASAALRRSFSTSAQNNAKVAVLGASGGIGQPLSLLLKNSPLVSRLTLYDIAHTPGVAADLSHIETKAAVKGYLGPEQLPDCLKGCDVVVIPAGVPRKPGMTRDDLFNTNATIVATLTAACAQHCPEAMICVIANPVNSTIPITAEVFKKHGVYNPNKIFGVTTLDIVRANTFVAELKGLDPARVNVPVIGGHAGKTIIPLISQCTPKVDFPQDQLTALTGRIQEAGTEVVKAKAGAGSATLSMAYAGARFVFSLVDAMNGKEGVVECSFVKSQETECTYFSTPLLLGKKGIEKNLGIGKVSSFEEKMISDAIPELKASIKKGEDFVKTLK
value-kind: IC50 (nM)

Worked cases, IC50 given:
## Task For Malate dehydrogenase, mitochondrial (Homo sapiens), provide IC50 of "O=C1Cc2c([nH]c3ccc(Cl)cc23)-c2ccccc2N1Cc1ccccc1" please.
## Result 2700

## Task For Malate dehydrogenase, mitochondrial (Homo sapiens), provide IC50 of "CCCCCOC(=O)c1ccc2[nH]c3c(c2c1)CC(=O)Nc1ccccc1-3" please.
## Result 4400

## Task For Malate dehydrogenase, mitochondrial (Homo sapiens), provide IC50 of "Cc1ccc(CN2C(=O)Cc3c([nH]c4ccc(Br)cc34)-c3ccccc32)cc1" please.
## Result 1600

## Task For Malate dehydrogenase, mitochondrial (Homo sapiens), provide IC50 of "O=C1Cc2c([nH]c3ccc(Br)cc23)-c2ccccc2N1Cc1ccc(Cl)c(Cl)c1" please.
## Result 1100

(I) COc1ccc2[nH]c3c(c2c1)CC(=O)N(Cc1ccccc1)c1ccccc1-3
(II) O=C1Cc2c([nH]c3ccccc23)-c2ccccc2N1Cc1ccc(Cl)c(Cl)c1
(III) CC(C)(C)c1ccc2[nH]c3c(c2c1)CC(=O)N(Cc1ccc(Cl)c(Cl)c1)c1ccccc1-3
## Task Sequence the entries by IC50, beginning with the highest number. Please list the labels according to the requested order.
## Result I, II, III
(I: 11900 nM, II: 7900 nM, III: 770 nM)

Data origin: ChEMBL document CHEMBL1154701
